From: paper PMC5540273

test system: CDK11; construct: gene CDK19; details: concentration: 1 μM, replicates: in singlicate; n = 1;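 further: KINOMEscan kinase panel screen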
Recorded %Inh, one value per entry.
# output: bare number, implied unit %

The cases that follow already have their %Inh on record.
{"columns": ["Smiles str", "Measured on", "Readout unit", "Data value"],
 "data": [
  ["Cc1cccc(Nc2nc(N[C@H]3CCCC[C@H]3N)ncc2C(N)=O)c1.Cl", "CDK11", "%", 24],
  ["O=C(Nc1n[nH]c2nc(-c3ccccc3)ccc12)C1CC1", "CDK11", "%", 0],
  ["CN(c1ccc(NC(=O)Nc2cccc(Cl)c2)cc1)c1ccnc(N)n1.Cl", "CDK11", "%", 77],
  ["c1ccc(Oc2ccc(Nc3ccnc4cc(-c5ccc(CN6CCCCC6)o5)ccc34)cc2)nc1", "CDK11", "%", 0]
]}

Looking for the measured %Inh of Cc1ccc(NC(=O)c2ccc(Cl)c(Cl)c2)cc1-c1ccc(C(=O)Nc2ccncc2)cc1 , can you help?
13

What value of measured %Inh is listed for CS(=O)(=O)c1cccc(CNc2nc(Nc3ccc4c(c3)CCC(=O)N4)ncc2C(F)(F)F)c1 ?
0

---

test system: MRCKA; conditions: concentration: 1 μM, replicates: in singlicate; n = 1
Each entry gets false if its %Inh stays under 10%, and true if its %Inh is 10% or above.

Worked set:
{"columns": ["Smiles str", "Cat"],
 "data": [
  ["COc1cccc(CC(=O)N2CCc3cc(-c4cn(C)c5ncnc(N)c45)ccc32)c1", "false"],
  ["Cl.O=C(Nc1ccc(Oc2ccc3[nH]c(NC(=O)c4ccco4)nc3c2)cc1)Nc1cc(C(F)(F)F)ccc1F", "true"],
  ["CN(c1ccc(NC(=O)N2CCN(CCCN3CCOCC3)CC2)cc1)c1ccnc(Nc2ccc(CS(C)(=O)=O)cc2)n1.Cl", "true"],
  ["COc1cccc(NC(=O)NCCNc2ccnc(Nc3ccc(F)cc3)n2)c1", "true"],
  ["CN(c1ccc(F)c(NC(=O)c2cccc(OC(C)(C)C#N)c2Cl)c1)c1ccc2nc(NC(=O)C3CC3)sc2n1", "false"],
  ["O=C1NC(=O)C(c2ccccc2Cl)=C1Nc1cccc(Cl)c1", "true"],
  ["COc1cccc2c(-c3ccncc3)c(-c3ccc(F)cc3)nn12", "true"]
]}

Continue with the next compound.
Determine whether measured %Inh meets or exceeds 10% for CC(C)c1nc(-c2cccc(NS(=O)(=O)c3c(F)cccc3F)c2)c(-c2ccnc(Nc3ccc(N4CCOCC4)nc3)n2)s1.Cl
true

---

system: SRC; conditions: concentration: 1 μM, replicates: in singlicate; n = 1
Assay readout: %Inh (%)
Output spec: scalar in %, unitless text.

Answered cases to consult:
{"columns": ["Compound", "Readout unit", "%Inh"],
 "data": [
  ["CC(C)NCC(Cc1ccccc1)NC(=O)c1cc(Br)c(-c2ccnc3[nH]ccc23)s1.Cl.Cl (stereo not drawn)", "%", 0],
  ["CSc1ccc(NC2=C(c3ccc(Cl)cc3)C(=O)NC2=O)cc1", "%", 17],
  ["CCNc1nccc(-c2c(-c3ccc(F)cc3)ncn2C2CCN(C)CC2)n1", "%", 9],
  ["CN(C)CCNS(=O)(=O)c1ccc(-c2ccnc3[nH]ccc23)cc1", "%", 6]
]}

Bench note: what %Inh did N#CC1(c2cccc(C(=O)Nc3cccc(Oc4ccc5nc(NC(=O)C6CC6)sc5n4)c3)c2)CC1 show?
97.6

Data request, read-out %Inh, for Cn1cc(-c2cnc(N)c3c(-c4ccc5c(c4)CCN5C(=O)Cc4ccccc4)csc23)cn1
81

Quick check: %Inh of O=C(Nc1n[nH]c2nc(-c3ccccc3O)ccc12)C1CC1 ?
0

Reported %Inh, compound O=C(Nc1c(F)cccc1F)c1cc(C(=O)c2ccccc2F)c[nH]1 : ____
0

Which %Inh reading was recorded for the compound COc1ccc(C2=C(Nc3cccc(O)c3)C(=O)NC2=O)cc1 ?
0
